molecular target: SRSF protein kinase 2 (Homo sapiens) (UniProt P78362); details: at 10 µM
Sequence (P78362 whole entry, looked up): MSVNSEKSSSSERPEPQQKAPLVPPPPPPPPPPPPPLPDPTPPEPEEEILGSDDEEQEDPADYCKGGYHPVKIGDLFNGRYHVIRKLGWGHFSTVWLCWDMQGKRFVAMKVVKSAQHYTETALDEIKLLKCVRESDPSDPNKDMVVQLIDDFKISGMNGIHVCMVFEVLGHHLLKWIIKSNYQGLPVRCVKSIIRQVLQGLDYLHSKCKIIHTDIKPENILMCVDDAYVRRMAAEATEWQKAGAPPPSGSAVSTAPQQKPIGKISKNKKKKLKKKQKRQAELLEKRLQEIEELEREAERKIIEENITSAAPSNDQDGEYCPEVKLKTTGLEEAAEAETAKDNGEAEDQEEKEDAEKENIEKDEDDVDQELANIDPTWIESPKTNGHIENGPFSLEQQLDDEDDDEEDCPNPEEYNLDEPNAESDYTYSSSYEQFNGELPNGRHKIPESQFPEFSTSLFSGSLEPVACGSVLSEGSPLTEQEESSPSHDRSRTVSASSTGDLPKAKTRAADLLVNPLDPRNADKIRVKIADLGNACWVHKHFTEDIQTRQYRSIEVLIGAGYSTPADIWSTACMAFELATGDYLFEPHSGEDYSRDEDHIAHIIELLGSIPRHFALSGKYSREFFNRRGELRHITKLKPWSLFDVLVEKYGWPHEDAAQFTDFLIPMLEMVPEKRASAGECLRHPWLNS
So basically: residual activity at 90% or higher? That is criterion met. Lower than 90%? That is criterion not met.

Ask: Tell me whether residual activity is at least 90% here: c1ccc2c(-c3ccncc3)c[nH]c2c1
Reply: criterion met

Ask: Tell me whether residual activity is at least 90% here: CN(C)CCCn1cc(C2=C(c3c[nH]c4ccccc34)C(=O)NC2=O)c2ccccc21
Reply: criterion not met

Ask: Tell me whether residual activity is at least 90% here: CC(=O)c1ccc(N2CCOCC2)cc1O
Reply: criterion met

Ask: Tell me whether residual activity is at least 90% here: CC[n+]1c(/C=C/N(C)c2ccccc2)n(-c2ccccc2)c2ccc(-c3nc4ccccc4s3)cc21
Reply: criterion met

Ask: Tell me whether residual activity is at least 90% here: CCN(CC)C(=O)c1ccc(Nc2nc(OCC3CCCCC3)c3nc[nH]c3n2)cc1
Reply: criterion not met

Ask: Tell me whether residual activity is at least 90% here: Cn1cc(/C=C2\C(=O)Nc3ccc(S(N)(=O)=O)cc32)c2ccccc21
Reply: criterion not met

Ask: Tell me whether residual activity is at least 90% here: CO[C@@H]1[C@H](N(C)C(=O)c2ccccc2)C[C@H]2O[C@]1(C)n1c3ccccc3c3c4c(c5c6ccccc6n2c5c31)C(=O)NC4
Reply: criterion not met

Ask: Tell me whether residual activity is at least 90% here: Oc1ccc(-c2nc(-c3ccc(F)cc3)c(-c3ccncc3)[nH]2)cc1
Reply: criterion not met

Others:
Ask: Tell me whether residual activity is at least 90% here: Oc1ccc(Nc2nc(-c3ccc(Cl)cc3)cs2)cc1
Reply: criterion not met

Ask: Tell me whether residual activity is at least 90% here: Cc1cc2ncc(-c3ccccc3)nc2cc1C
Reply: criterion met

Ask: Tell me whether residual activity is at least 90% here: O=C(Nc1cccc(Nc2cc(Nc3cccc(C(F)(F)F)c3)ncn2)c1)C1CC1
Reply: criterion not met

Ask: Tell me whether residual activity is at least 90% here: O=C1NC(=O)/C(=C/c2ccc3c(c2)OC(F)(F)O3)S1
Reply: criterion not met

Ask: Tell me whether residual activity is at least 90% here: Nc1ccc2ncnc(NCCc3ccc(Oc4ccccc4)cc3)c2c1
Reply: criterion not met

Ask: Tell me whether residual activity is at least 90% here: Cc1nc(-c2ccccc2)c(-c2ccncc2)o1
Reply: criterion not met

Ask: Tell me whether residual activity is at least 90% here: Cc1cccc(-c2[nH]c(C(C)(C)C)nc2-c2ccc3c(c2)OCO3)n1
Reply: criterion met

---

target: Misshapen-like kinase 1 (Homo sapiens); conditions: at 10 µM
So basically: residual activity at 20% or higher? That is Yes. Lower than 20%? That is No.

Illustrative cases are given below, each with its answer.
Ask: Tell me whether residual activity is at least 20% here: CO[C@@H]1[C@H](N(C)C(=O)c2ccccc2)C[C@H]2O[C@]1(C)n1c3ccccc3c3c4c(c5c6ccccc6n2c5c31)C(=O)NC4
Reply: No

Ask: Tell me whether residual activity is at least 20% here: CCOc1cc2ncnc(Nc3cccc(Br)c3)c2cc1OCC
Reply: Yes

Ask: Tell me whether residual activity is at least 20% here: Nc1cccc(-c2cc3c(Oc4cccc(O)c4)ncnc3[nH]2)c1
Reply: No

Ask: Tell me whether residual activity is at least 20% here: O=c1cc(-c2cccc3c2Sc2ccccc2S3)oc(N2CCOCC2)c1
Reply: Yes

Others:
Ask: Tell me whether residual activity is at least 20% here: COc1ccc(S(=O)(=O)N(CCO)c2ccccc2CN(C)C/C=C/c2ccc(Cl)cc2)cc1
Reply: Yes

---

Parameter: residual activity. Scope: all listed entries.
Target: Serine/threonine-protein kinase BRSK2 (Homo sapiens)
Sequence (whole entry): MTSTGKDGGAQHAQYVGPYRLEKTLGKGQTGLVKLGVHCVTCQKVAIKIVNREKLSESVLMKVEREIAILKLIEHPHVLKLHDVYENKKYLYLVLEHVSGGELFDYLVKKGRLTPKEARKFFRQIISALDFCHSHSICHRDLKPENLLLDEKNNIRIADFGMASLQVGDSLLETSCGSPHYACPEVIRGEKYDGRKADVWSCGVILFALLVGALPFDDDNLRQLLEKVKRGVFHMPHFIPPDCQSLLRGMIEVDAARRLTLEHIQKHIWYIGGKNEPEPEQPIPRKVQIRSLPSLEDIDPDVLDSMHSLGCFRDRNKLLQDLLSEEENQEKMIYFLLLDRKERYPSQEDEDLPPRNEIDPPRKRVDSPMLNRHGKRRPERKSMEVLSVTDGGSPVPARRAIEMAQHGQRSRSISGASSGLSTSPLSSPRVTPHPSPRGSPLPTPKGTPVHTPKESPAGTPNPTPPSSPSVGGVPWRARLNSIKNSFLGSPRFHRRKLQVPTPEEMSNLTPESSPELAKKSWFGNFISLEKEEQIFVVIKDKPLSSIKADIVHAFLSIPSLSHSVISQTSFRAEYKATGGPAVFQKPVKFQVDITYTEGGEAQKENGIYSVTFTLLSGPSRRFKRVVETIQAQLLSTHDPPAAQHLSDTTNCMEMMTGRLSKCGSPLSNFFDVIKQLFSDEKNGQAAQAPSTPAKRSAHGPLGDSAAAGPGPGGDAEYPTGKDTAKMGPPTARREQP
Details: at 10 µM
The response must be a number in % with no trailing unit.

Form: compound = N#C/C(=C(\N)Sc1ccc(N)cc1)c1ccccc1C(F)(F)F ; residual activity = 103

Form: compound = O=C1NC(=O)c2c1c1c3ccccc3[nH]c1c1[nH]c3cc(Br)ccc3c21 ; residual activity = 32

Form: compound = O=C(Nc1cccc(Nc2cc(Nc3cccc(C(F)(F)F)c3)ncn2)c1)C1CC1 ; residual activity = 47

Form: compound = Ic1cccc(CSc2nnc(-c3ccncc3)o2)c1 ; residual activity = 97

Form: compound = CCOc1cc2ncnc(Nc3cccc(Br)c3)c2cc1OCC ; residual activity = 60

Form: compound = O=C1NC(=O)/C(=C/c2ccc3c(c2)OC(F)(F)O3)S1 ; residual activity = 62

Form: compound = Cc1cc2ncc(-c3ccccc3)nc2cc1C ; residual activity = 97

Form: compound = O=[N+]([O-])c1ccc(-c2nc(-c3ccc(F)cc3)c(-c3ccncc3)[nH]2)cc1 ; residual activity = 103

Form: compound = Oc1ccc(-c2nc(-c3ccc(F)cc3)c(-c3ccncc3)[nH]2)cc1 ; residual activity = 90

Form: compound = COc1ccc(OC)c2c(=S)c3ccccc3[nH]c12 ; residual activity = 89

Form: compound = COc1ccc(S(=O)(=O)N(CCO)c2ccccc2CN(C)C/C=C/c2ccc(Cl)cc2)cc1 ; residual activity = 88

Form: compound = Nc1ccc2ncnc(NCCc3ccc(Oc4ccccc4)cc3)c2c1 ; residual activity = 99

Form: compound = COc1cc2ncc(-c3ccccc3)nc2cc1OC ; residual activity = 67

Form: compound = c1ccc2c(-c3ccncc3)c[nH]c2c1 ; residual activity = 61

---

Biological target: Eukaryotic elongation factor 2 kinase (Homo sapiens) (UniProt O00418)
Sequence (whole entry): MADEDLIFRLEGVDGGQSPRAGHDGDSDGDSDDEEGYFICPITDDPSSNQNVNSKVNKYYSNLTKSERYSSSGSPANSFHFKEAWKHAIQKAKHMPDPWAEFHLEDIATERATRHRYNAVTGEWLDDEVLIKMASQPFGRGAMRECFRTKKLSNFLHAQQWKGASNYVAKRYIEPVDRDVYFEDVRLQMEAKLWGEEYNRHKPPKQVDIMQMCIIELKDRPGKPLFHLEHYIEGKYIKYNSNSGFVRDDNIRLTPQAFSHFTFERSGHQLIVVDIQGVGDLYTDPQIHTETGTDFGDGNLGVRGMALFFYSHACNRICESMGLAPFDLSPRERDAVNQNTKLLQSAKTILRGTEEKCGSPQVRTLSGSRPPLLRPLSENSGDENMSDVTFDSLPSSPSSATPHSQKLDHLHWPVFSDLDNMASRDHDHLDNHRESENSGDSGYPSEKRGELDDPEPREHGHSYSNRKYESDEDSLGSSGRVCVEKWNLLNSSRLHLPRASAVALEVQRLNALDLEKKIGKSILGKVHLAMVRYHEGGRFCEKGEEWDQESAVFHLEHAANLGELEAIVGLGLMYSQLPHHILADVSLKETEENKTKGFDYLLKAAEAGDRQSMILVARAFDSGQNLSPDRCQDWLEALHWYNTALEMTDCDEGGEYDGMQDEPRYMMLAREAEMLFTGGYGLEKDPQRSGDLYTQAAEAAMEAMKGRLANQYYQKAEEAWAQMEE
Settings: at 1 µM
Description: Millipore: Percentage of residual kinase activity of EEF2K at 1uM relative to control. Control inhibitor: Phosphoric acid* at 0.3uM. Buffer: 8 mM MOPS pH 7.0, 0.2 mM EDTA
Parameter: residual activity. Scope: all listed entries.
The response must be a number in % with no trailing unit.

Form: molecule = COc1ccc(CNc2nc(N(CCO)CCO)nc3c2ncn3C(C)C)cc1 ; residual activity = 106

Form: molecule = COc1cc2ncnc(Nc3ccc(Oc4ccccc4)cc3)c2cc1OC ; residual activity = 92

Form: molecule = O=C1NC(=O)/C(=C\c2ccc3nccnc3c2)S1 ; residual activity = 99

Others:
Form: molecule = O=C(Nc1cccc(Nc2nccc(Nc3cccc(C(F)(F)F)c3)n2)c1)C1CC1 ; residual activity = 93

Form: molecule = O=[N+]([O-])c1ccc(-c2nc(-c3ccc(F)cc3)c(-c3ccncc3)[nH]2)cc1 ; residual activity = 108

Form: molecule = O=Nc1c(-c2c(O)[nH]c3ccccc23)[nH]c2ccccc12 ; residual activity = 109

Form: molecule = CC(C)n1cnc2c(NCc3ccccc3)nc(NCCCO)nc21 ; residual activity = 108
